# protocol_notes: Enzyme-coupled assay: transfer of acyl-moieties from MMal-CoA to the ACP
# Assay type: biochemical
# applied_conditions: substrate MMal-CoA, acceptor ACP from murine FAS
# Lookup of reported Km keyed by entry
Write the value in µM as a bare number.

Mutant A13: engineered murine acyltransferase, mutations K186D R300E (protein) NKRPLWFICSGMGTQWRGMGLSLMRLDSFRESILRSDEAVKPLGVKVSDLLLSTDERTFDDIVHAFVSLTAIQIALIDLLTSVGLKPDGIIGHSLGEVACGYADGCLSQREAVLAAYWRGQCIKDAHLPPGSMAAVGLSWEECKQRCPAGVVPACHNSEDTVTISGPQAAVNEFVEQLKQEGVFADEVRTGGLAFHSYFMEGIAPTLLQALKKVIREPRPRSARWLSTSIPEAQWQSSLARTSSAEYNVNNLVSPVLFQEALWHIPEHAVVLEIAPHALLQAVLKRGVKSSCTIIPLMKEDHKDNLEFFLTNLGKVHLT    686

Km recorded for this molecule, Mutant A12: engineered murine acyltransferase, mutations K186D R300D (protein) NKRPLWFICSGMGTQWRGMGLSLMRLDSFRESILRSDEAVKPLGVKVSDLLLSTDERTFDDIVHAFVSLTAIQIALIDLLTSVGLKPDGIIGHSLGEVACGYADGCLSQREAVLAAYWRGQCIKDAHLPPGSMAAVGLSWEECKQRCPAGVVPACHNSEDTVTISGPQAAVNEFVEQLKQEGVFADEVRTGGLAFHSYFMEGIAPTLLQALKKVIREPRPRSARWLSTSIPEAQWQSSLARTSSAEYNVNNLVSPVLFQEALWHIPEHAVVLEIAPHALLQAVLKRGVKSSCTIIPLMKDDHKDNLEFFLTNLGKVHLT , is 66.2

The values you see were collected from patent US20260218138A1.
